The measurements presented in this section are drawn from patent US11191754B2.

# CLint scaled at 1 μM per record follows
# MEASUREMENT_DESCRIPTION: Mouse liver microsome assay
# Type: in vitro ADME
# MEASUREMENT_PARAMETERS: mouse, liver microsomes, 1 μM compound, read-out: CL ‘hep
For clarity, give the value followed by its unit.

**Q:** Give CLint scaled at 1 μM for Cc1cc(CC(C)CC(C)(C)C)n(O)c(=O)c1 (centres unmarked)
**A:** 8 mL/min/kg

**Q:** Give CLint scaled at 1 μM for `C/C(=N\c1ccccc1N)c1c(C)cc(=O)n(O)c1O`
**A:** 163 mL/min/kg

====

# HSV-2 Log10 suppression 50 μM per record follows
# Tested on: HSV-2
# MEASUREMENT_DESCRIPTION: Anti-HSV-2 replication assay (virus yield by plaque assay on Vero cells)
# Type: cell-based, herpes simplex virus 2 (HSV-2)
# MEASUREMENT_PARAMETERS: 50 μM; Vero cells, moi 0.1, 24 h, relative to DMSO control

These solved cases illustrate the format of a correct answer.
**Q:** Look up and report measured HSV-2 Log10 suppression 50 μM (HSV-2) for the following compound: `Cc1cc(COc2ccc(Oc3ccc(Cl)cc3)cc2)n(O)c(=O)c1`
**A:** 1.81 log10

**Q:** Look up and report measured HSV-2 Log10 suppression 50 μM (HSV-2) for the following compound: `C/C(=N\c1ccccc1N)c1c(C)cc(=O)n(O)c1O`
**A:** 0.26 log10

**Q:** Look up and report measured HSV-2 Log10 suppression 50 μM (HSV-2) for the following compound: Cc1cc(CC(C)CC(C)(C)C)n(O)c(=O)c1 (stereo not shown)
**A:** 4.25 log10

We now examine a further compound.
**Q:** Look up and report measured HSV-2 Log10 suppression 50 μM (HSV-2) for the following compound: Nc1nc2c(ncn2COCCO)c(=O)[nH]1 [Acyclovir, acyclovir, reference compound]
**A:** 5.25 log10
